Cited source: ChEMBL document CHEMBL1144673

Molecular target: Alpha-glucosidase MAL12 (Saccharomyces cerevisiae S288c) (UniProt P53341)
Sequence (P53341 whole entry): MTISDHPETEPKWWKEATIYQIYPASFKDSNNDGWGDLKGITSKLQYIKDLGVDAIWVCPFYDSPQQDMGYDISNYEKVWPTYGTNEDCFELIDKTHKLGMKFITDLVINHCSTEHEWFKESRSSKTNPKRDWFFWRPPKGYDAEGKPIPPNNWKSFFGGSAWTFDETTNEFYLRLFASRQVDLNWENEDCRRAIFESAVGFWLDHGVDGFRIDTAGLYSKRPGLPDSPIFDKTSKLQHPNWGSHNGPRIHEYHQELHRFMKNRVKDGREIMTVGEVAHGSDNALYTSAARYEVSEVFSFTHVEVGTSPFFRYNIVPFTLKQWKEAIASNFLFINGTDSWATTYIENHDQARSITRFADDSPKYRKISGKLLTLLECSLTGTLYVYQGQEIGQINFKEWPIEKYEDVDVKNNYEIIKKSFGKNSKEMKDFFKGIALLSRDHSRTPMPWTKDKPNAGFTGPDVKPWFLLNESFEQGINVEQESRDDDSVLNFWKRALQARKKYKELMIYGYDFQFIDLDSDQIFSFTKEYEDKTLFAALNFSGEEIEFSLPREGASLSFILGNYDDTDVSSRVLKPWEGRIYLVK
Test: Inhibition of bakers yeast alpha-glucosidase at 50 uM
Recorded measurements of inhibition, one per entry
Answer in %, number only, no unit symbol.

Here is how some molecules turned out for inhibition.
O=C(CSc1nc2ccccc2c(=O)n1-c1ccccc1)NCc1ccccc1 = 50.9
O=C1NC(=O)N(c2ccccc2F)C(=O)/C1=C\c1ccccc1OCc1ccc(C(=O)O)cc1 = 54
N#CC1=C(N)n2c(s/c(=C\c3ccccc3F)c2=O)=C(C(N)=O)C1c1ccccc1F (stereo not drawn) = 62.2
Oc1ccc(-c2nnc(Nc3cccc(O)c3)c3ccccc23)cc1 = 61.4
Cn1cc(/C=C/C(=O)NC(=O)c2ccccc2O)c2ccccc21 = 71.4
O=C(Nc1nccs1)c1c(O)c2ccccc2n(Cc2ccccc2)c1=O = 52.3

// "Cc1ccc(-n2c(SCC(=O)Nc3ccc(F)c(F)c3)nnc2-c2ccccc2)cc1" : inhibition value = 63.1

// "O=C(Cn1c(=O)n(CC(=O)NCc2ccccc2)c2cc(Cl)ccc21)NCc1ccccc1" : inhibition value = 62.4

// "O=C(Nc1ccccc1O)c1ccc(Oc2cccc(C(=O)Nc3ccccc3O)c2)cc1" : inhibition value = 70.1

// "Cc1ccc(/N=c2\cc(-c3ccc4c(c3)OCO4)oc3ccc(O)cc23)cc1C" : inhibition value = 58

// "O=C(CSc1nnc(COc2cccc3cccnc23)n1-c1ccccc1)c1ccc(Cl)cc1" : inhibition value = 66.5

// N#CC1=C(N)n2c(s/c(=C\c3ccc(O)cc3)c2=O)=C(C(N)=O)C1c1ccc(O)cc1 (stereo not drawn) : inhibition value = 59.2

// "COc1ccc(N2C(=O)NC(=O)/C(=C\c3cn(CC(=O)Nc4ccccc4)c4ccccc34)C2=O)cc1" : inhibition value = 50.6
